- System: SW48 cells
- assay_notes: Cytotoxicity assay, CellTiter-Glo 2.0, SW48 cells
- Format: cell-based
- condition_parameters: SW48, human colon cancer cell line expressing wild type kRAS (EGF receptor mutation); 48 hours
pIC50: −log10 of the molar value.
measurement_kind: pIC50

>  <chemical_structure>
Cc1nc(-c2ccc(CNC(=O)c3cc(CC(C)C)nn3C)cc2)no1

>  <recorded_result>
6.22

$$$$

* * *

- Tested on: SW620 cells
- assay_notes: Cytotoxicity assay, CellTiter-Glo 2.0, SW620 cells
- Format: cell-based
- condition_parameters: SW-620; SW620, human colon cancer cell line expressing mutant G12V kRAS; 48 hours
pIC50: −log10 of the molar value.

>  <chemical_structure>
Cc1nc(-c2ccc(CNC(=O)c3cc(CC(C)C)nn3C)cc2)no1

>  <pIC50>
7.26

$$$$
